Just for reference, patent US20090004214A1 is where these values come from.

- systemTested: T1, HLA-DRB5 molecule (DRB5*0101) (human)
- T1 construct: HLA class II heterodimer
- methodSummary: competitive ELISA, tracer HA 306-318
Catalogue of IC50 values
Be sure to follow the number with its unit.

CAFLSVKKQFEELTL (synthetic 15-mer) [survivin peptide 84-98] :: 1.77 µM
PTLPPAWQPFLKDHR (synthetic 15-mer) [survivin peptide 4-18] :: 5.48 µM
AGFIHCPTENEPDLA (synthetic 15-mer) [survivin peptide 41-55] :: 3.38 µM

Given the entry KNWPFLEGCACTPER (synthetic 15-mer) [survivin peptide 23-37] , report its measured IC50. 3.42 µM

Could you do the same for LTLGEFLKLDRERAK (synthetic 15-mer) [survivin peptide 96-110] , please? 0.103 µM

Could you do the same for DPIEEHKKHSSGCAF (synthetic 15-mer) [survivin peptide 72-86] , please? 6.2 µM

Could you do the same for QPFLKDHRISTFKNW (synthetic 15-mer) [survivin peptide 11-25] , please? 2.26 µM
